The entries below are paired with their reported Plant response rating, S. Flatsedge.
tested on: smallflower flatsedge (Cyperus difformis); experiment: Test B flood test; assay type: in vivo; details: Rate 500 g/ha, Postemergence (flood test species)

Take a look at these entries with their results.
- smiles input: "Cc1cnc(-n2cnc(C(F)(F)F)c2)nc1C(=O)c1cccc(OC(F)(F)F)c1"
  assay system: "smallflower flatsedge (Cyperus difformis)"
  readout value: 9
- smiles input: "Cc1cnc(-c2ccccc2)nc1Cn1ccc(C(F)(F)F)n1"
  assay system: "smallflower flatsedge (Cyperus difformis)"
  readout value: 4
- smiles input: "Cc1cnc(-n2ccc(C(F)(F)C(F)(F)F)n2)nc1C(=O)c1cccc(OC(F)(F)F)c1"
  assay system: "smallflower flatsedge (Cyperus difformis)"
  readout value: 8
- smiles input: "Cc1cnc(-c2ccc(C(F)(F)F)cc2)nc1Cn1ccc(C#N)n1"
  assay system: "smallflower flatsedge (Cyperus difformis)"
  readout value: 9
- smiles input: "Cc1cnc(-n2ccc(C(F)(F)F)n2)nc1C(=O)c1cccc(OC(F)(F)F)c1"
  assay system: "smallflower flatsedge (Cyperus difformis)"
  readout value: 9

We next turn to a different compound, shown below.
## Input Query for smallflower flatsedge (Cyperus difformis): what Plant response rating, S. Flatsedge does the record show for Cc1cnc(-n2cnc(C(F)(F)F)n2)nc1C(=O)c1cccc(OC(F)(F)F)c1 ?
## Output 9
